Cited source: patent US10004732B2

# TARGET: mTOR (Homo sapiens, UniProt P42345)
# METHOD SUMMARY: Lanthascreen kinase binding assay, assay G
# ASSAY CONDITIONS: read-out: Assay G mTOR IC50
MEASUREMENT TYPE: IC50

Required: IC50, one value per molecule below.
1. Cc1ccc(S(=O)(=O)NCCC(C)(C)O)cc1-c1cnc(N)c(-c2ccoc2)n1
2. COCCCNS(=O)(=O)c1ccc(C)c(-c2cnc(N)c(-c3ccnc(C)c3)n2)c1
3. Cc1ccc(S(=O)(=O)NCC2(C)COC2)cc1-c1cnc(N)c(-n2cncn2)n1
4. Cc1cc(-c2nc(-c3cc(S(=O)(=O)NC4CCC(C)(O)CC4)ccc3C)cnc2N)ccn1 (centres unmarked)
5. Cc1cc(C)n(-c2nc(-c3cc(S(=O)(=O)NCC(C)(C)O)ccc3C)cnc2N)n1

["> 9.1 µM", "> 9.1 µM", "> 9.1 µM", "3.02 µM", "> 10 µM"]

Required: IC50, one value per molecule below.
1. Cc1ccc(S(=O)(=O)NC[C@@H](C)O)cc1-c1cnc(N)c(-n2cncn2)n1
2. Cc1ccc(S(=O)(=O)NCC(C)(C)O)cc1-c1cnc(N)c(-c2nc(C(C)C)no2)n1
3. Cc1ccc(S(=O)(=O)NOCC(C)(C)O)cc1-c1cnc(N)c(-c2cn(C)nc2C)n1

1: 6.1 µM; 2: > 10 µM; 3: > 10 µM

----------
Provide the recorded pIC50 for the entries that follow.
# TARGET: PI 3-kinase gamma (Homo sapiens, UniProt P48736)
# Sequence (P48736 whole entry): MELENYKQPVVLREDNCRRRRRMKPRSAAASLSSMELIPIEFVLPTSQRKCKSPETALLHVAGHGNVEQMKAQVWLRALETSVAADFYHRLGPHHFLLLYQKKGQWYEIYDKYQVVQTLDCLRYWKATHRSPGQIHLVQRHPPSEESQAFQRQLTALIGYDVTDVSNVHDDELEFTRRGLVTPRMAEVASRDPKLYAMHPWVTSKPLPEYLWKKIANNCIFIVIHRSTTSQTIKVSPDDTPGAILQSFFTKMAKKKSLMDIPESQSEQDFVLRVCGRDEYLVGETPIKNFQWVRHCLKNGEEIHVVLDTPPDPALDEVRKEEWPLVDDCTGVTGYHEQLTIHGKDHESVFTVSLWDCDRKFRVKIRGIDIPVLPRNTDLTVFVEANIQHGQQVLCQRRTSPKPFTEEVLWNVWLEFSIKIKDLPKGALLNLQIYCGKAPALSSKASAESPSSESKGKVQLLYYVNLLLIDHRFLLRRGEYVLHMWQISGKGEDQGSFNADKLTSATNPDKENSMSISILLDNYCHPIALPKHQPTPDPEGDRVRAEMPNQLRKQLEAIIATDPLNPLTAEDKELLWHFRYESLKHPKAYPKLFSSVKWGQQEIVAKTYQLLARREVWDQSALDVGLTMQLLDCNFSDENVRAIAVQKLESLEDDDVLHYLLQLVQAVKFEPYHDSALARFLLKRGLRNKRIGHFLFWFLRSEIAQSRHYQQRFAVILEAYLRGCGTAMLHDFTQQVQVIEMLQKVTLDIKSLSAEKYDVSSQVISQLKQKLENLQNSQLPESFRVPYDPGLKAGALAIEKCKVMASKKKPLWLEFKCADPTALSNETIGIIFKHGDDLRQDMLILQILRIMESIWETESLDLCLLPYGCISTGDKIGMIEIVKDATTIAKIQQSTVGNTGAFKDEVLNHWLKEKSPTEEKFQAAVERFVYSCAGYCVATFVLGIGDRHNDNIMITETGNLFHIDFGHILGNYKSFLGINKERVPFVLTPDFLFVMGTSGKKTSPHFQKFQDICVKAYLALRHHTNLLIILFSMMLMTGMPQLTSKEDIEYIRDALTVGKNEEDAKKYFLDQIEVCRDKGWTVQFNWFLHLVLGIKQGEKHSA
# METHOD SUMMARY: TR-FRET Adapta assay, assay E
# Type: biochemical
# ASSAY CONDITIONS: read-out: Assay E PI3Kγ IC50
One number for each entry, as −log10 of the molar value.

Cc1ccc(S(=O)(=O)N2CC(F)C2)cc1-c1cnc(N)c(-n2cncn2)n1; 7.00
Cc1ccc(S(=O)(=O)NCCF)cc1-c1cnc(N)c(-n2cncn2)n1; 6.80
Cc1ccc(S(=O)(=O)NC[C@@H]2CCC(C)(C)O2)cc1-c1cnc(N)c(-n2cncn2)n1 [Example 127.39]; 7.00

Required: pIC50, one value per compound below.
1. Cc1ccc(S(=O)(=O)NCCC(C)(C)O)cc1-c1cnc(N)c(-c2cccnc2Cl)n1
2. Cc1ccc(S(=O)(=O)NCCC(C)(C)O)cc1-c1cnc(N)c(-c2ccc(C3CC3)s2)n1
3. Cc1ccc(S(=O)(=O)NC[C@@H]2CCOC2)cc1-c1cnc(N)c(-n2cncn2)n1
4. Cc1ccc(S(=O)(=O)NCCC(F)(F)F)cc1-c1cnc(N)c(-n2cncn2)n1
5. Cc1cn(-c2nc(-c3cc(S(=O)(=O)NCCC(C)(C)O)ccc3C)cnc2N)cn1

[6.79, 6.96, 6.82, 7.17, 7.17]

----------
# TARGET: PI 3-kinase gamma (Homo sapiens, UniProt P48736)
# METHOD SUMMARY: TR-FRET Adapta assay, assay E
# Assay type: biochemical
# ASSAY CONDITIONS: read-out: Assay E PI3Kγ IC50
Mark 1 for IC50 under 20 nM, 0 if at or over.

Observe how each entry below is paired with its result.
Cc1ccc(S(=O)(=O)NCCC(C)(C)O)cc1-c1cnc(N)c(-c2cnn(CC(C)C)c2)n1; 1
Cc1ccc(S(=O)(=O)NCCC(C)(C)O)cc1-c1cnc(N)c(-c2ccnn2C)n1; 0
Cc1cn(-c2nc(-c3cc(S(=O)(=O)N[C@H]4CC[C@H](O)CC4)ccc3C)cnc2N)cn1; 1
Cc1ccc(S(=O)(=O)NCC(F)F)cc1-c1cnc(N)c(-n2cncn2)n1; 0
Cc1cc(-c2nc(-c3cc(S(=O)(=O)NC4CCC(C)(O)CC4)ccc3C)cnc2N)ccn1 (stereo not drawn); 0

As a next step, examine the compound that follows.
Item `Cc1ccc(S(=O)(=O)NCC(C)(C)O)cc1-c1cnc(N)c(-c2nc(C3CC3)no2)n1` : IC50 beneath 20 nM, strictly?
0
